System: SK-MEL-5 melanoma
Experiment: NCI tumour cell line growth inhibition, 48 h
Each entry below carries its recorded TGI.
QUANTITY KIND: TGI (µM)

molecule=CCN(CC)c1ccc(C(=N)c2ccc(N(C)C)cc2)cc1 uom=µM reported_relation== reading=1.94
molecule=COc1cc(C(=O)/C=C/c2cccnc2Nc2ccccc2)cc(OC)c1OC uom=µM reported_relation== reading=2.64
molecule="C[C@@H](NC1CCC[C@H]1O)c1ccccc1 (stereo partly specified)" uom=µM reported_relation=> reading=100
molecule=Cc1ccc2c(c1)-c1c(C#N)c(N)nc(-c3ccccc3)c1CCS2(=O)=O uom=µM reported_relation=> reading=24
molecule=C/C(CC1SCCCS1)=C(/C)CC1SCCCS1 uom=µM reported_relation=> reading=100
molecule=CCOC(=O)/C=C(\C(=O)OCC)n1ccc(=O)n(CC(=O)OCC)c1=O uom=µM reported_relation== reading=25.8
molecule="CC1OC1C(=O)C1(O)C(C)C(O)C23OC2(C(O)c2c(O)cccc2C3=O)C1O (stereo unspecified)" uom=µM reported_relation== reading=0.534
molecule=CCC(/C=C/c1ccccc1)=N\Nc1ccc(Cl)c(Cl)c1 uom=µM reported_relation== reading=30
molecule=CCNCCNc1cc(C2CCCCC2)c(C#N)c2nc3ccccc3n12 uom=µM reported_relation== reading=3.1
molecule=O=c1cc(N=Nc2ccc(O)cc2)[nH]c(=O)[nH]1 uom=µM reported_relation=> reading=100
molecule=Nc1ccc(-c2ccc(N)cc2I)c(I)c1 uom=µM reported_relation== reading=27.2

All values here come from PubChem BioAssay (NCI).
